Kindly state activity coefficient for each of the entries shown.
- assay.remarks: activity coefficient (dimensionless); of the first substance listed, at infinite dilution; xn = mol fraction of the nth substance listed
- particulars: 358.15 K; Liquid; Chromatography; x1 = 0
Numbers only.

Sample records with activity coefficient:
CC(C)(C)O [2-methylpropan-2-ol] + CCCCCCn1cc[n+](C)c1.N#C[B-](C#N)(C#N)C#N :: 0.951
CC1CCCCC1 [methylcyclohexane] + CCCCCCn1cc[n+](C)c1.N#C[B-](C#N)(C#N)C#N :: 7.24
CCCCCCC [heptane] + CCCCCCn1cc[n+](C)c1.N#C[B-](C#N)(C#N)C#N :: 13

Alright, here's another molecule for you.
Exam item: Query: activity coefficient; subject: CC(C)CC(C)(C)C [2,2,4-trimethylpentane] + CCCCCCn1cc[n+](C)c1.N#C[B-](C#N)(C#N)C#N
Marked response: 15

====

- assay.remarks: activity coefficient (dimensionless); of the first substance listed, at infinite dilution; xn = mol fraction of the nth substance listed
- particulars: 368.15 K; Liquid; Chromatography; x1 = 0
Entries whose activity coefficient is below 2 take met; entries at or above 2 take not met.

C#CCCCC [1-hexyne] + CCCCCCn1cc[n+](C)c1.N#C[B-](C#N)(C#N)C#N :: not met
CCC(=O)OC [methyl propanoate] + CCCCCCn1cc[n+](C)c1.N#C[B-](C#N)(C#N)C#N :: met
CC1CCCCC1 [methylcyclohexane] + CCCCCCn1cc[n+](C)c1.N#C[B-](C#N)(C#N)C#N :: not met
CCOC(C)(C)C [2-ethoxy-2-methylpropane] + CCCCCCn1cc[n+](C)c1.N#C[B-](C#N)(C#N)C#N :: not met
CCOC(C)=O [ethyl acetate] + CCCCCCn1cc[n+](C)c1.N#C[B-](C#N)(C#N)C#N :: met
C1CCCC1 [cyclopentane] + CCCCCCn1cc[n+](C)c1.N#C[B-](C#N)(C#N)C#N :: not met
C#CCCCCC [1-heptyne] + CCCCCCn1cc[n+](C)c1.N#C[B-](C#N)(C#N)C#N :: not met
c1ccccc1 [benzene] + CCCCCCn1cc[n+](C)c1.N#C[B-](C#N)(C#N)C#N :: met

Exam item: Record C=CCCCC [hex-1-ene] + CCCCCCn1cc[n+](C)c1.N#C[B-](C#N)(C#N)C#N : is its activity coefficient strictly below 2?
Marked response: not met

Exam item: Record C=CCCCCCCCC [1-decene] + CCCCCCn1cc[n+](C)c1.N#C[B-](C#N)(C#N)C#N : is its activity coefficient strictly below 2?
Marked response: not met

Exam item: Record C=CCCCCC [1-heptene] + CCCCCCn1cc[n+](C)c1.N#C[B-](C#N)(C#N)C#N : is its activity coefficient strictly below 2?
Marked response: not met

Exam item: Record CCCCC [pentane] + CCCCCCn1cc[n+](C)c1.N#C[B-](C#N)(C#N)C#N : is its activity coefficient strictly below 2?
Marked response: not met

Exam item: Record C=CCCCCCC [oct-1-ene] + CCCCCCn1cc[n+](C)c1.N#C[B-](C#N)(C#N)C#N : is its activity coefficient strictly below 2?
Marked response: not met

Exam item: Record CO [methanol] + CCCCCCn1cc[n+](C)c1.N#C[B-](C#N)(C#N)C#N : is its activity coefficient strictly below 2?
Marked response: met

Exam item: Record CCCCCC [hexane] + CCCCCCn1cc[n+](C)c1.N#C[B-](C#N)(C#N)C#N : is its activity coefficient strictly below 2?
Marked response: not met

Exam item: Record CCC(C)CC [3-methylpentane] + CCCCCCn1cc[n+](C)c1.N#C[B-](C#N)(C#N)C#N : is its activity coefficient strictly below 2?
Marked response: not met

Exam item: Record CCCOCCC [dipropyl ether] + CCCCCCn1cc[n+](C)c1.N#C[B-](C#N)(C#N)C#N : is its activity coefficient strictly below 2?
Marked response: not met

Exam item: Record COC(C)=O [methyl ethanoate] + CCCCCCn1cc[n+](C)c1.N#C[B-](C#N)(C#N)C#N : is its activity coefficient strictly below 2?
Marked response: met

Exam item: Record CCCO [propan-1-ol] + CCCCCCn1cc[n+](C)c1.N#C[B-](C#N)(C#N)C#N : is its activity coefficient strictly below 2?
Marked response: met
